Test system: B16F0 melanoma tumour
Experiment: Biodistribution in B16 melanoma bearing mice
Assay type: in vivo, C57BL/6J mice
Conditions: B16 melanoma bearing mice, 6 h
uptake GIT by entry:
recorded-endpoint: uptake GIT (% ID/g)

INSERT INTO results (molecule, recorded_endpoint, result_units, observed_value) VALUES
  ('CCN(CC)CCNC(=O)c1ccnc(F)c1 [[^18F]MEL8]', 'uptake GIT', '% ID/g', 0.23),
  ('CCN(CC)CCNC(=O)c1cccnc1F [[^18F]MEL6]', 'uptake GIT', '% ID/g', 3.6),
  ('CCN(CC)CCNC(=O)c1ccc(F)nc1 [[^18F]MEL2]', 'uptake GIT', '% ID/g', 0.135),
  ('CCCCN(C)CCCCNC(=O)c1ccc(F)nc1 [[^18F]MEL4]', 'uptake GIT', '% ID/g', 3.08);

* * *

Test system: B16F0 melanoma tumour
Assay: Biodistribution in B16 melanoma bearing mice
Type: in vivo, C57BL/6J mice
Settings: B16F0 tumour, C57BL/6J mice, 24 h, mean ± S.D., n = 5
Organ distribution Intestine by entry:
recorded-endpoint: Organ distribution Intestine (% ID/organ)

INSERT INTO results (molecule, observed_value) VALUES
  ('CCCN(CCC)CCCCNC(=O)c1cncc(I)c1 [[^123I]17]', 0.40),
  ('CCN(CC)CCNC(=O)c1ccc(I)nc1 [[^123I]14]', 0.35),
  ('O=C(c1cncc(I)c1)N1CCN(Cc2ccccc2)CC1 [[^123I]20]', 0.4),
  ('CCN(CC)CCNC(=O)c1cncc(I)c1 [[^123I]11]', 0.10);

* * *

Tested on: B16F0 melanoma tumour
Experiment: Biodistribution in B16 melanoma bearing mice
Format: in vivo, C57BL/6J mice
Settings: B16 melanoma bearing mice, 3 h
Experimental: Animal experiments were performed in compliance with the NHMRC Australian Code of Practice for the care and use of animals for scientific purposes. […] Eleven days (B16F0 melanoma) and 25 days (A375 human melanoma) after tumour transplantation, the [^18F]nicotinamides (0.5-1.5 MBq, 100 μl) and [^123I]nicotinamide (0.37-0.74 MBq, 100 μl) derivatives were injected intravenously via the tail vein into mice (15-18 g). […] Selected organs were weighed and their radioactivity measured with a γ-counter. […]
recorded-endpoint: uptake SPLEEN (% ID/g)

INSERT INTO assay_data (compound, experimental_system, recorded_endpoint, observed_value) VALUES
  ('CCN(CC)CCNC(=O)c1ccc(F)nc1 [[^18F]MEL2]', 'B16F0 melanoma tumour', 'uptake SPLEEN', 0.890),
  ('CCN(CC)CCNC(=O)c1cccnc1F [[^18F]MEL6]', 'B16F0 melanoma tumour', 'uptake SPLEEN', 2.5),
  ('CCN(CC)CCNC(=O)c1ccnc(F)c1 [[^18F]MEL8]', 'B16F0 melanoma tumour', 'uptake SPLEEN', 2.32),
  ('CCCCN(C)CCCCNC(=O)c1ccc(F)nc1 [[^18F]MEL4]', 'B16F0 melanoma tumour', 'uptake SPLEEN', 5.31);

* * *

Tested on: B16F0 melanoma tumour
Assay: Biodistribution in B16 melanoma bearing mice
Type: in vivo, C57BL/6J mice
Conditions: B16 melanoma bearing mice, 3 h
recorded-endpoint: uptake HEART (% ID/g)

INSERT INTO assay_data (compound, recorded_endpoint, observed_value) VALUES
  ('CCN(CC)CCNC(=O)c1cccnc1F [[^18F]MEL6]', 'uptake HEART', 0.3),
  ('CCCCN(C)CCCCNC(=O)c1ccc(F)nc1 [[^18F]MEL4]', 'uptake HEART', 0.71),
  ('CCN(CC)CCNC(=O)c1ccc(F)nc1 [[^18F]MEL2]', 'uptake HEART', 0.166),
  ('CCN(CC)CCNC(=O)c1ccnc(F)c1 [[^18F]MEL8]', 'uptake HEART', 0.33);

* * *

uptake SPLEEN by entry:
System: B16F0 melanoma tumour
Experiment: Biodistribution in B16 melanoma bearing mice
Assay type: in vivo, C57BL/6J mice
Settings: B16 melanoma bearing mice, 1 h
recorded-endpoint: uptake SPLEEN (% ID/g)

INSERT INTO assay_data (compound, recorded_endpoint, result_units, observed_value) VALUES
  ('CCCCN(C)CCCCNC(=O)c1ccc(F)nc1 [[^18F]MEL4]', 'uptake SPLEEN', '% ID/g', 7.38),
  ('CCN(CC)CCNC(=O)c1ccc(F)nc1 [[^18F]MEL2]', 'uptake SPLEEN', '% ID/g', 2.393),
  ('CCN(CC)CCNC(=O)c1ccnc(F)c1 [[^18F]MEL8]', 'uptake SPLEEN', '% ID/g', 3.19),
  ('CCN(CC)CCNC(=O)c1cccnc1F [[^18F]MEL6]', 'uptake SPLEEN', '% ID/g', 9.2);

* * *

System: B16F0 melanoma tumour
Assay: Biodistribution in B16 melanoma bearing mice
Assay type: in vivo, C57BL/6J mice
Settings: B16 melanoma bearing mice, 6 h
uptake LIVER by entry:
recorded-endpoint: uptake LIVER (% ID/g)

INSERT INTO results (compound, result_units, observed_value) VALUES
  ('CCN(CC)CCNC(=O)c1cccnc1F [[^18F]MEL6]', '% ID/g', 1.0),
  ('CCCCN(C)CCCCNC(=O)c1ccc(F)nc1 [[^18F]MEL4]', '% ID/g', 26.41),
  ('CCN(CC)CCNC(=O)c1ccnc(F)c1 [[^18F]MEL8]', '% ID/g', 0.60),
  ('CCN(CC)CCNC(=O)c1ccc(F)nc1 [[^18F]MEL2]', '% ID/g', 0.123);

* * *

uptake MUSCLE by entry:
Tested on: B16F0 melanoma tumour
Assay: Biodistribution in B16 melanoma bearing mice
Type: in vivo, C57BL/6J mice
Settings: B16 melanoma bearing mice, 3 h
recorded-endpoint: uptake MUSCLE (% ID/g)

INSERT INTO assay_data (compound, experimental_system, observed_value) VALUES
  ('CCN(CC)CCNC(=O)c1ccnc(F)c1 [[^18F]MEL8]', 'B16F0 melanoma tumour', 0.28),
  ('CCCCN(C)CCCCNC(=O)c1ccc(F)nc1 [[^18F]MEL4]', 'B16F0 melanoma tumour', 0.53),
  ('CCN(CC)CCNC(=O)c1ccc(F)nc1 [[^18F]MEL2]', 'B16F0 melanoma tumour', 0.201),
  ('CCN(CC)CCNC(=O)c1cccnc1F [[^18F]MEL6]', 'B16F0 melanoma tumour', 0.3);

* * *

Tested on: B16F0 melanoma tumour
Test: Biodistribution in B16 melanoma bearing mice
Type: in vivo, C57BL/6J mice
Settings: B16 melanoma bearing mice, 1 h
recorded-endpoint: uptake KIDNEY (% ID/g)

INSERT INTO measurements (compound, recorded_endpoint, observed_value) VALUES
  ('CCN(CC)CCNC(=O)c1cccnc1F [[^18F]MEL6]', 'uptake KIDNEY', 4.0),
  ('CCN(CC)CCNC(=O)c1ccnc(F)c1 [[^18F]MEL8]', 'uptake KIDNEY', 4.75),
  ('CCCCN(C)CCCCNC(=O)c1ccc(F)nc1 [[^18F]MEL4]', 'uptake KIDNEY', 4.64),
  ('CCN(CC)CCNC(=O)c1ccc(F)nc1 [[^18F]MEL2]', 'uptake KIDNEY', 3.446);

* * *

uptake EYES by entry:
Tested on: B16F0 melanoma tumour
Experiment: Biodistribution in B16 melanoma bearing mice
Assay type: in vivo, C57BL/6J mice
Conditions: B16 melanoma bearing mice, 3 h
recorded-endpoint: uptake EYES (% ID/g)

INSERT INTO results (compound, observed_value) VALUES
  ('CCN(CC)CCNC(=O)c1ccnc(F)c1 [[^18F]MEL8]', 18.81),
  ('CCN(CC)CCNC(=O)c1cccnc1F [[^18F]MEL6]', 36.3),
  ('CCN(CC)CCNC(=O)c1ccc(F)nc1 [[^18F]MEL2]', 17.276),
  ('CCCCN(C)CCCCNC(=O)c1ccc(F)nc1 [[^18F]MEL4]', 14.28);

* * *

Tested on: B16F0 melanoma tumour
Experiment: Biodistribution in B16 melanoma bearing mice
Format: in vivo, C57BL/6J mice
Conditions: B16F0 tumour, C57BL/6J mice, 6 h, mean ± S.D., n = 5
recorded-endpoint: Organ distribution Stomach (% ID/organ)

INSERT INTO measurements (compound, observed_value) VALUES
  ('CCN(CC)CCNC(=O)c1ccc(I)nc1 [[^123I]14]', 7),
  ('O=C(c1cncc(I)c1)N1CCN(Cc2ccccc2)CC1 [[^123I]20]', 4),
  ('CCN(CC)CCNC(=O)c1cncc(I)c1 [[^123I]11]', 1.2),
  ('CCCN(CCC)CCCCNC(=O)c1cncc(I)c1 [[^123I]17]', 6);

* * *

Tested on: B16F0 melanoma tumour
Assay: Biodistribution in B16 melanoma bearing mice
Assay type: in vivo, C57BL/6J mice
Conditions: B16 tumour, C57BL/6J mice, 24 h, mean ± SD, n = 5
recorded-endpoint: uptake BLOOD (% ID/g)

INSERT INTO assay_data (compound, observed_value) VALUES
  ('CCN(CC)CCNC(=O)c1cncc(I)c1 [[^123I]11]', 0.03),
  ('CCN(CC)CCNC(=O)c1ccc(I)nc1 [[^123I]14]', 0.25),
  ('O=C(c1cncc(I)c1)N1CCN(Cc2ccccc2)CC1 [[^123I]20]', 0.04),
  ('CCCN(CCC)CCCCNC(=O)c1cncc(I)c1 [[^123I]17]', 0.13);
